Recorded HCRTR2 (Antagonist) percent inhibition, one value per entry.
- assayTarget: HCRTR2 (Homo sapiens, UniProt O43614)
- methodSummary: PathHunter β-Arrestin GPCR antagonist assay, HCRTR2
- Assay type: cell-based
- conditionLabel: antagonist mode; agonist challenge at EC80
Report the figure along with its unit, number first.

> print(dat)
                                   molecule  reportedvalue
1  CCCc1cc(O)c2c(c1)OC(C)(C)[C@@H]1CCC(C)=C[C@@H]21 [THCV, tetrahydrocannabivarin]            89%
2  C=C(C)[C@@H]1CCC(C)=C[C@H]1c1c(O)cc(CCC)c(C(=O)O)c1O            10%
3  CCCCCc1cc(O)c2c(c1)OC1(C)CCC3C1C2C3(C)C (centres unmarked)            93%

Query: Checklist item: HCRTR2 (Antagonist) percent inhibition tested on HCRTR2 (Homo sapiens, UniProt O43614), entry C=C(C)[C@@H]1CCC(C)=C[C@H]1c1c(O)cc(CCCCC)c(C(=O)O)c1O , value?
Response: 10%

###

- assayTarget: HCRTR2 (Homo sapiens)
- Sequence (O43614 1-444): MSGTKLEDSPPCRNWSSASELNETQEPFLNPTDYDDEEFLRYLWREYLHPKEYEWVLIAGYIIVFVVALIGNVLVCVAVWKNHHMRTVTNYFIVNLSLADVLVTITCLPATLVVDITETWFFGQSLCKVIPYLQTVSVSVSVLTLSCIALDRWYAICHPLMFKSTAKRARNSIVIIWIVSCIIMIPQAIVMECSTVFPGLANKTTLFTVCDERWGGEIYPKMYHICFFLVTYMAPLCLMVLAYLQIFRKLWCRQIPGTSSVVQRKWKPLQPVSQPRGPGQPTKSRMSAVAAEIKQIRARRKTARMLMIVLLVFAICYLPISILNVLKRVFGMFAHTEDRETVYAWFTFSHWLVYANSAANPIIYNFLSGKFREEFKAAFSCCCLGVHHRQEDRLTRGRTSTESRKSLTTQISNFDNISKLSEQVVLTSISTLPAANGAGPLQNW
- methodSummary: PathHunter β-Arrestin GPCR antagonist assay, HCRTR2
- Type: cell-based
- conditionLabel: antagonist mode; agonist challenge at EC80
Recorded HCRTR2 (Antagonist) percent inhibition, one value per entry.
Report as a plain number; the unit % is understood.

Consider the reported HCRTR2 (Antagonist) percent inhibition for these molecules:
> print(dat)
                                        mol  reportedvalue
1  CCCc1cc(O)c(C/C=C(\C)CCC=C(C)C)c(O)c1C(=O)O             12
2      CCCCc1cc(O)c(CC=C(C)CCC=C(C)C)c(O)c1             45
3  CCCCCc1cc(O)c(C/C=C(\C)CCC=C(C)C)c(O)c1C(=O)O             14

In the following, a different molecule is considered.
Query: Checklist item: HCRTR2 (Antagonist) percent inhibition tested on HCRTR2 (Homo sapiens), entry C=C(C)[C@@H]1CCC(C)=C[C@H]1c1c(O)cc(CCC)cc1O , value?
Response: 18

###

- assayTarget: HCRTR1 (Homo sapiens)
- Sequence (O43613 1-425): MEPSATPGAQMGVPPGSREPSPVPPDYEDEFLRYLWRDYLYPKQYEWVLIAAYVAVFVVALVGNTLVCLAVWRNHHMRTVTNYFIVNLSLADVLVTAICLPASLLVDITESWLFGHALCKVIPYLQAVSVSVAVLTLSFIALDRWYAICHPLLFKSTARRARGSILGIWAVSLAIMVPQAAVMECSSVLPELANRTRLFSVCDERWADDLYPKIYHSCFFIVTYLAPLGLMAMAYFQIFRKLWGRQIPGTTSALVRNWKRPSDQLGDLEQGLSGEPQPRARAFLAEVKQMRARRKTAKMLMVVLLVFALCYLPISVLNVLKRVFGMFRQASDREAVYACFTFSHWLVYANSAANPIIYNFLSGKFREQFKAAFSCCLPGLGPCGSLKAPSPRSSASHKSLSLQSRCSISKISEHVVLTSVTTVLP
- methodSummary: PathHunter β-Arrestin GPCR antagonist assay, HCRTR1
- Format: cell-based
- conditionLabel: antagonist mode; agonist challenge at EC80
Decide using HCRTR1 (Antagonist) percent inhibition: a value greater than or equal to 20% is rule met, a smaller one is rule not met.

Solved cases (5 shown):
> print(dat)
                                   molecule            assaytarget      category
1  CCCCCc1cc(O)c2c(c1)OC1(C)CCC3C1C2C3(C)C (stereo not drawn) [CBL, cannabicyclol]  HCRTR1 (Homo sapiens)      rule met
2  CCCCCc1cc2c(c(O)c1C(=O)O)C1C3C(CCC3(C)O2)C1(C)C (stereo not drawn) [CBLA, cannabicyclolic acid]  HCRTR1 (Homo sapiens)  rule not met
3  CCCCCc1cc(O)c(C/C=C(\C)CCC=C(C)C)c(O)c1 [CBG, cannabigerol]  HCRTR1 (Homo sapiens)      rule met
4  C=C(C)[C@@H]1CCC(C)=C[C@H]1c1c(O)cc(CCCCC)cc1O [CBD, cannabidol]  HCRTR1 (Homo sapiens)      rule met
5  C=C(C)[C@@H]1CCC(C)=C[C@H]1c1c(O)cc(CCCCC)c(C(=O)O)c1O [CBDA, cannabidiolic acid]  HCRTR1 (Homo sapiens)  rule not met

Query: Check if HCRTR1 (Antagonist) percent inhibition >= 20% (inclusive). Item: CCCCc1cc(O)c(C/C=C(\C)CCC=C(C)C)c(O)c1C(=O)O [CBGA-C4, cannabigerolic acid butyl]
Response: rule not met

Query: Check if HCRTR1 (Antagonist) percent inhibition >= 20% (inclusive). Item: C=C(C)[C@@H]1CCC(C)=C[C@H]1c1c(O)cc(CCC)c(C(=O)O)c1O [CBDVA, cannabidivarinic acid]
Response: rule not met
